tested on: Yap1 mRNA; experiment: Dose-dependent inhibition of human Yap1 in A-431 cells (Example 7, 10,000 cells per well, RTS36584); type: cell-based; details: 62.5 nM, A-431 cells, 10,000 cells per well, free uptake, approximately 48 hours
Strand notation (5' to 3'): a small letter for the sugar, then the base; units joined by * are phosphorothioate-linked, units joined directly phosphodiester-linked; [ ] holds rarer units or linkages, { } end groups; capitals alone tell only the bases. k = constrained ethyl (cEt); [5mC] = 5-methylcytosine; d = 2'-deoxy (DNA)
Quantity kind: Yap1 mRNA, % UTC (% UTC)

{"columns": ["Substance", "Assay system", "Result units", "Experimental result"],
 "data": [
  ["958805 (k[5mC]*kA*kA*dG*dA*dT*dA*dA*dT*d[5mC]*dA*dT*d[5mC]*k[5mC]*kT*k[5mC]; antisense) [compound 958805]", "Yap1 mRNA", "% UTC", 89],
  ["958625 (kT*kG*k[5mC]*dT*dG*dG*dG*dA*dT*dT*dG*dA*dT*kA*kT*kT; antisense) [compound 958625]", "Yap1 mRNA", "% UTC", 59],
  ["958585 (k[5mC]*kT*k[5mC]*dT*dA*dT*d[5mC]*dA*dA*dG*dG*dT*d[5mC]*k[5mC]*k[5mC]*k[5mC]; antisense) [compound 958585]", "Yap1 mRNA", "% UTC", 71],
  ["958544 (kG*k[5mC]*kT*dA*dA*dA*dT*dT*d[5mC]*dA*dA*d[5mC]*dT*kA*k[5mC]*k[5mC]; antisense) [compound 958544]", "Yap1 mRNA", "% UTC", 77],
  ["958550 (k[5mC]*k[5mC]*kT*dG*dT*dA*dG*dA*d[5mC]*dA*d[5mC]*dA*dT*kA*k[5mC]*kT; antisense) [compound 958550]", "Yap1 mRNA", "% UTC", 60],
  ["958594 (k[5mC]*kT*k[5mC]*dT*dT*dA*dG*dG*dT*d[5mC]*dT*d[5mC]*d[5mC]*kT*kT*k[5mC]; antisense) [compound 958594]", "Yap1 mRNA", "% UTC", 70]
]}
